# System: MCF7
# assayProcedure: NCI tumour cell line growth inhibition, 48 h
Calls of active or inactive are those of the source. Rule as the data show it: active = GI50 up to about 1.1 µM and inactive = higher.
Each record here notes measured GI50.

Below are worked cases with known answers.
CCN(CC)CCNc1ccc2ncn3c4c(OC)ccc(O)c4c(=O)c1c23    3.52 µM (inactive)
CN(C)CCCC12CCCCC1=Nc1ccccc12 (stereo not given)    > 100 µM (inactive)
C/C(=N\Nc1nc2ccccc2o1)c1ccncn1    0.0556 µM (active)
Nc1sccc1S(=O)(=O)c1ccsc1N    > 100 µM (inactive)
CCC1(CC)CC(=NNS(=O)(=O)c2ccc(C)cc2)C1    > 100 µM (inactive)
Cn1nc(C(=O)N2CC(CCl)c3c2cc([N+](=O)[O-])c2ccccc32)cc1NC(=O)Nc1cc(C(=O)N2CC(CCl)c3c2cc([N+](=O)[O-])c2ccccc32)nn1C (stereo not given)    > 100 µM (inactive)
O=C1CSC2(CC(/C=C/c3ccccc3[N+](=O)[O-])=NN2c2cccc(S(=O)(=O)O)c2)N1c1nc2ccccc2s1 (stereo not given)    12.5 µM (inactive)
Oc1nc(S)nc2nc3c4cccnc4c4ccccc4c3nc12    88.3 µM (inactive)

The reported GI50 of the compound CC(C)(C)OC(=O)N(O)CCCn1cnc2c(N)ncnc21 was > 100 µM (inactive)

Consider Nc1nc(Cl)cc(OCC2(CO)CCCC2)n1 . Its measured GI50 is > 100 µM (inactive)
